Molecular target: T1, CLL1 on CLL1-expressing cells (U937, HL60) (human, UniProt Q5QGZ9 1-265)
T1 sequence (looked up): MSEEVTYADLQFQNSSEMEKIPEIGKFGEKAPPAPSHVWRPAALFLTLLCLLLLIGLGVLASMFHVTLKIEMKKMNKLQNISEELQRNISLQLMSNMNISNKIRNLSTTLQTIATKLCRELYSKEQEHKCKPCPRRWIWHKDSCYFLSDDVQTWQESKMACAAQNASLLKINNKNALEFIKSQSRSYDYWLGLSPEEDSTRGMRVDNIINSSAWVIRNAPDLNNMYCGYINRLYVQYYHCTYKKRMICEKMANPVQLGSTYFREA
Experiment: cell-based or functional assay
EC50 (nM) direct cellular killing, HL60 values, listed per item

| binder | EC50 (nM) direct cellular killing, HL60 |
| --- | --- |
| ADC3-8 (antibody, human IgG1, kappa, V domains shown, conjugator-linker-payload on cysteine thiols after TCEP reduction; positions not given) VH: EVQLVQSGAEVKKPGASVKVSCKASGYSFTDYYMHWVRQAPGQGLEWIGRINPYAGAAFYSQNFKDRVTLTVDTSTSTAYLELSSLRSEDTAVYYCAIERGADLEGYAMDYWGQGTLVTVSS VL: DIQMTQSPSSLSASVGDRVTITCRASQSVSTSSYNYMHWYQQKPGKPPKLLIKYASNLESGVPSRFSGSGSGTDFTLTISSLQPEDFATYYCQHSWEIPLTFGQGTKVEIKR | 0.1 |
| ADC3-A (antibody, human IgG1, kappa, V domains shown, conjugator-linker-payload on cysteine thiols after TCEP reduction; positions not given) VH: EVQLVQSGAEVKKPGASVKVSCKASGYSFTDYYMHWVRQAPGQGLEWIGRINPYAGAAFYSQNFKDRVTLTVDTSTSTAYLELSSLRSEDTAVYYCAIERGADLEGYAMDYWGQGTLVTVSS VL: DIQMTQSPSSLSASVGDRVTITCRASQSVSTSSYNYMHWYQQKPGKPPKLLIKYASNLESGVPSRFSGSGSGTDFTLTISSLQPEDFATYYCQHSWEIPLTFGQGTKVEIKR | 1.4 |
| ADC3-7 (antibody, human IgG1, kappa, V domains shown, conjugator-linker-payload on cysteine thiols after TCEP reduction; positions not given) VH: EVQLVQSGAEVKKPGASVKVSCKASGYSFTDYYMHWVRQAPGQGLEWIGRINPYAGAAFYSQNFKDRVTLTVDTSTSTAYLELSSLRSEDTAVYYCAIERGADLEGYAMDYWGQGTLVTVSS VL: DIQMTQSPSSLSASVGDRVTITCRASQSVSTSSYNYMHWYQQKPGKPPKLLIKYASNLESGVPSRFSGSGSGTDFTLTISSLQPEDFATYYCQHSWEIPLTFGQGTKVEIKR | 0.4 |
| ADC3-9 (antibody, human IgG1, kappa, V domains shown, conjugator-linker-payload on cysteine thiols after TCEP reduction; positions not given) VH: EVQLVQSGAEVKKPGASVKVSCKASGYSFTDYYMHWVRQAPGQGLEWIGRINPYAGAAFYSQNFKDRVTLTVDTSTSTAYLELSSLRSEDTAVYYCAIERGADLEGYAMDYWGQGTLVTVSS VL: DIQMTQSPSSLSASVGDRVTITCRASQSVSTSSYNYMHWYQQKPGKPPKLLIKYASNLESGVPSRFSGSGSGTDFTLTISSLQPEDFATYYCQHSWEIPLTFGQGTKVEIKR | 1.7 |
